target: Sphingosine 1-phosphate receptor 1 (Homo sapiens); assay: Agonist activity at human sphingosin-1-phosphate receptor 1 expressed in CHO cells assessed as phosphorylation status of p44/42 MAPK after 10 mins by Western blotting; type: cell-based
Active and inactive are the calls of the source. The rule behind the calls is not given here.
measured_attribute: Activity

> print(dat)
                                smiles.repr  measured.attribute  result
1              NC(CO)(CO)CCCCCCCCCCc1ccccc1            Activity  Active
2  NC(CO)(CO)CCCCCCCCCCc1cccc(S(F)(F)(F)(F)F)c1            Activity  Active
3           NC(CO)(CO)CCCCCCCCCCc1ccc(F)cc1            Activity  Active
4  NC(CO)(CO)CCCCCCCCCCc1c(F)c(F)c(F)c(F)c1F            Activity  Active
5             NC(CO)(CO)CCCCCCCCCCCCCCC(F)F            Activity  Active

Q) Give the measured Activity of `NC(CO)(CO)CCCCCCCCCCc1ccc(C(F)(F)F)cc1` .
A) Active

Q) Give the measured Activity of `NC(CO)(CO)CCCCCCCCCCc1ccc(S(F)(F)(F)(F)F)cc1` .
A) Active

---

target: Sphingosine 1-phosphate receptor 1 (Homo sapiens); experiment: Agonist activity at human sphingosin-1-phosphate receptor 1 expressed in CHO cells assessed as phosphorylation status of p44/42 MAPK after 5 mins by Western blotting; type: cell-based
Active and inactive are the calls of the source. No cut-off for these calls is given here.
measured_attribute: Activity

> print(dat)
                                smiles.repr  measured.attribute  result
1           NC(CO)(CO)CCCCCCCCCCc1ccc(F)cc1            Activity  Active
2  NC(CO)(CO)CCCCCCCCCCc1cccc(S(F)(F)(F)(F)F)c1            Activity  Active
3    NC(CO)(CO)CCCCCCCCCCc1ccc(C(F)(F)F)cc1            Activity  Active
4             NC(CO)(CO)CCCCCCCCCCCCCCC(F)F            Activity  Active
5  NC(CO)(CO)CCCCCCCCCCc1ccc(S(F)(F)(F)(F)F)cc1            Activity  Active
6              NC(CO)(CO)CCCCCCCCCCc1ccccc1            Activity  Active

Continue with the next compound.
Q) Give the measured Activity of `NC(CO)(CO)CCCCCCCCCCc1c(F)c(F)c(F)c(F)c1F` .
A) Active
